Hey, just so you know, these numbers are from ChEMBL document CHEMBL1201862.

Tested on: ACHN
Test: NCI tumour cell line growth inhibition, 48 h
Calls of active or inactive are those of the source. No stated cut-off is given here; in the data, active = GI50 up to about 1.1 µM and inactive = higher.
GI50 overview

O=C1/C(=C/c2ccccc2[N+](=O)[O-])N=C(c2ccccc2)N1C1Nc2cc3c(cc2S1)NC(N1C(=O)/C(=C/c2ccccc2[N+](=O)[O-])N=C1c1ccccc1)S3 (stereo unspecified)
28.4 µM (inactive)
Clc1ccc(Oc2ccc(/N=C/c3ccc(Cl)cc3Cl)cc2Cl)cc1
> 100 µM (inactive)
COc1ccccc1NC1=NCC(C)S1 (stereo unspecified)
> 100 µM (inactive)

The value of GI50 measured for the compound CC(C)(C)OC(=O)N/C=C1\C(=O)Oc2ccccc2C1=O turned out to be 20.2 µM (inactive)

The value of GI50 measured for the compound C[C@H](NS(=O)(=O)c1ccc(NC(=O)c2ccccc2)cc1)C(=O)O turned out to be > 100 µM (inactive)

The value of GI50 measured for the compound CC(C)(Oc1ccc(Cl)cc1)C(=O)N(C(=O)N1CCC(c2ccccc2)CC1)c1ccccc1 turned out to be 40.6 µM (inactive)
